recorded conditions: fish
Below: a set of entries, each annotated with reported log10 BCF.
value kind: log10 BCF

molecule: Brc1cc(Br)c(Oc2c(Br)c(Br)c(Br)c(Br)c2Br)c(Br)c1Br
value kind: log10 BCF
value observed: 5.75
//
molecule: O=[N+]([O-])c1ccccc1Cl
value kind: log10 BCF
value observed: 1.17
//
molecule: c1ccc(-c2ccccc2)cc1
value kind: log10 BCF
value observed: 2.64
//
molecule: O=[N+]([O-])c1cccc(S(=O)(=O)[O][Na])c1
value kind: log10 BCF
value observed: 0.7
//
molecule: Oc1cccc(Br)c1
value kind: log10 BCF
value observed: 1.18
//
molecule: COc1ccc(Cl)c(Cl)c1Cl
value kind: log10 BCF
value observed: 2.96
//
molecule: CCCCC(CC)CN1C(=O)C2C(C1=O)C1(C(C)C)C=CC2(C)CC1 (stereo not drawn)
value kind: log10 BCF
value observed: 2.97
//
molecule: ClC(Cl)(Cl)Cl
value kind: log10 BCF
value observed: 0.87

Hello, the source for this data is the OPERA property sets (Mansouri et al. 2018), in case you need it.
